- Tested on: SF-268
- EXPERIMENT_SUMMARY: Growth inhibition of human SF-268 cells at 10 uM incubated for 48 hrs by sulforhodamine B assay relative to control
- Format: functional
- PARTICULARS: read-out: GI
The molecules listed here are annotated with their inhibition of growth at 10 µM.
RECORDED_METRIC: inhibition of growth at 10 µM (%)

* COc1cc2nc(-c3ccc(Cl)cc3)cc(OCCCN3CCC(O)CC3)c2cc1OC | 62
* COc1cc2nc(-c3ccco3)cc(OCCCN3CCC(O)CC3)c2cc1OC | 46
* COc1cc2nc(-c3ccc(C(F)(F)F)cc3)cc(OCCN3CCOCC3)c2cc1OC | 13
* COc1cc2nc(-c3ccc(Cl)cc3)cc(OCCCN3CCCCC3)c2cc1OC | 62
* COc1cc2nc(-c3ccsc3)cc(OCCCN3CCC(O)CC3)c2cc1OC | 32
* COc1cc2nc(-c3ccc(Cl)cc3)cc(OCCN3CCCC3)c2cc1OC | 3
* COc1cc2nc(-c3ccc(Cl)cc3)cc(OCCN3CCCCC3)c2cc1OC | 3
* COc1cc2nc(-c3ccc(Cl)cc3)cc(OCCCN3CCOCC3)c2cc1OC | 62
* COc1cc2nc(-c3ccc(Cl)cc3)cc(OCCCN3CCCC3)c2cc1OC | 62
* COc1cc2nc(-c3ccc(C(F)(F)F)cc3)cc(OCCN3CCCCC3)c2cc1OC | 13
* COc1cc2nc(-c3ccc(C(F)(F)F)cc3)cc(OCCN3CCCC3)c2cc1OC | 13
* COc1cc2nc(-c3ccc(Cl)cc3)cc(OCCN3CCOCC3)c2cc1OC | 3
* COc1cc2nc(-c3ccc(C(F)(F)F)cc3)cc(OCCN3CCC(O)CC3)c2cc1OC | 13
* COc1cc2nc(-c3ccc(Cl)cc3)cc(OCCN3CCC(O)CC3)c2cc1OC | 3
* COc1cc2nc(-c3cccs3)cc(OCCCN3CCC(O)CC3)c2cc1OC | 20
